Target: Motilin receptor (Homo sapiens, UniProt O43193); also: assay procedure not described here
Sequence (O43193 whole entry): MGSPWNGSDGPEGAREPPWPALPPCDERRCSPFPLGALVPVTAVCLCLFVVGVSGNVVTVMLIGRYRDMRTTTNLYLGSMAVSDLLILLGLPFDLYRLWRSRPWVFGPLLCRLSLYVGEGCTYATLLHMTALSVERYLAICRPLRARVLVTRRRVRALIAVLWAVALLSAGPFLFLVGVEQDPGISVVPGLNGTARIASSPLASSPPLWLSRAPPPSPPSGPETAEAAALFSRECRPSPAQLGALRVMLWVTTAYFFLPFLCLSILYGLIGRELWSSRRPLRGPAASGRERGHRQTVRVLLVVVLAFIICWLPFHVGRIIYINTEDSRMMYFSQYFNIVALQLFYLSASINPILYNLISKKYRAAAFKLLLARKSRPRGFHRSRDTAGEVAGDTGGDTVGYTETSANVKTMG
Measured metric: AC50

NS(=O)(=O)c1cc(C(=O)O)cc(N2CCCC2)c1Oc1ccccc1 [PIRETANIDE] :: > 30 µM

Lookup: Which value of AC50 has been reported for COCCCOc1ccnc(C[S+]([O-])c2nc3ccccc3[nH]2)c1C (centres undefined) in the records?
Found: > 10 µM

Lookup: Item CCN(CC)CC(=O)Oc1ccc(NC(C)=O)cc1 has what recorded AC50?
Found: > 30 µM

Lookup: # query: AC50 of entry Nc1ccc(C(=O)O)c(O)c1
Found: > 30 µM

----------
Biological target: 5-hydroxytryptamine receptor 1A (Homo sapiens); also: assay procedure not described here
Sequence (P08908 whole entry): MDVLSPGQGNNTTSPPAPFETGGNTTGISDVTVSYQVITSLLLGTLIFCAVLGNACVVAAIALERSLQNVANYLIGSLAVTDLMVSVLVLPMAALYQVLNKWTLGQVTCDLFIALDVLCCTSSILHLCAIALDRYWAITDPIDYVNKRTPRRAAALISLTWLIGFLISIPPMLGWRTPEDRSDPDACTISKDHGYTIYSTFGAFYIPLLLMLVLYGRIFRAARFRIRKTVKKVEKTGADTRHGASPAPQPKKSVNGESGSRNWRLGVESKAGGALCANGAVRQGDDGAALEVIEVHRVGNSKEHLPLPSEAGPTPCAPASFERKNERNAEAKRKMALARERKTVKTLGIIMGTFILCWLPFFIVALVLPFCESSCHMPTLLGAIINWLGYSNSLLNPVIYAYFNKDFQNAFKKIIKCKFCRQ
Type: functional, cell-based
Each entry below carries its recorded AC50.

Lookup: Query (molecule): Cn1c(=O)c2[nH]cnc2n(C)c1=O [THEOPHYLLINE] ; field requested: AC50
Found: > 10 µM

Lookup: AC50 for Clc1ccc2c(c1)C(c1ccccc1)=NCc1nncn1-2 [ESTAZOLAM] ?
Found: > 10 µM

Lookup: Looking for the measured AC50 of CC1(C)C(C=C(Cl)Cl)C1C(=O)OCc1cccc(Oc2ccccc2)c1 (configuration not stated) [PERMETHRIN] , can you help?
Found: > 10 µM

Lookup: Sample CNC[C@H](O)c1cccc(O)c1 [PHENYLEPHRINE] — what was its AC50?
Found: > 10 µM

Lookup: Name the recorded AC50 for CCc1oc2ccccc2c1C(=O)c1cc(Br)c(O)c(Br)c1 [BENZBROMARONE] .
Found: > 30 µM

Lookup: Looking for the measured AC50 of COc1ccc2c(c1)[C@]13CCCC[C@@H]1[C@H](C2)N(C)CC3 [DEXTROMETHORPHAN] , can you help?
Found: > 10 µM

Lookup: Fill blank: measured AC50 of the molecule C[C@@H]1CCC[C@H](C)N1NC(=O)c1ccc(Cl)c(S(N)(=O)=O)c1 [CLOPAMIDE] is ____.
Found: > 30 µM

Lookup: Bench note: what AC50 did COC(=O)N[C@@H](C)CNc1nccc(-c2cn(C(C)C)nc2-c2cc(Cl)cc(NS(C)(=O)=O)c2F)n1 [ENCORAFENIB] show?
Found: > 30 µM

Lookup: Can you look up the measured AC50 of O=C(O)c1ccccc1OP(=O)(O)O [FOSFOSAL] for me?
Found: > 30 µM

Lookup: Quick check: AC50 of O=C1NC(=O)C(c2ccccc2)(c2ccccc2)N1 [PHENYTOIN] ?
Found: > 30 µM

Lookup: Can you look up the measured AC50 of [H]/N=C(\N/C(=N/[H])NCCCCCCNC(=N)NC(=N)Nc1ccc(Cl)cc1)Nc1ccc(Cl)cc1 [CHLORHEXIDINE] for me?
Found: 8.3 µM

Lookup: So what's the measured AC50 for this one? C[C@]12CC[C@H](O)CC1=CC[C@@H]1[C@@H]2CC[C@]2(C)C(c3cccnc3)=CC[C@@H]12 [ABIRATERONE]
Found: > 10 µM

----------
Below: a set of entries, each annotated with reported AC50.
Molecular target: UniProt:Q01959
Sequence (Q01959 whole entry): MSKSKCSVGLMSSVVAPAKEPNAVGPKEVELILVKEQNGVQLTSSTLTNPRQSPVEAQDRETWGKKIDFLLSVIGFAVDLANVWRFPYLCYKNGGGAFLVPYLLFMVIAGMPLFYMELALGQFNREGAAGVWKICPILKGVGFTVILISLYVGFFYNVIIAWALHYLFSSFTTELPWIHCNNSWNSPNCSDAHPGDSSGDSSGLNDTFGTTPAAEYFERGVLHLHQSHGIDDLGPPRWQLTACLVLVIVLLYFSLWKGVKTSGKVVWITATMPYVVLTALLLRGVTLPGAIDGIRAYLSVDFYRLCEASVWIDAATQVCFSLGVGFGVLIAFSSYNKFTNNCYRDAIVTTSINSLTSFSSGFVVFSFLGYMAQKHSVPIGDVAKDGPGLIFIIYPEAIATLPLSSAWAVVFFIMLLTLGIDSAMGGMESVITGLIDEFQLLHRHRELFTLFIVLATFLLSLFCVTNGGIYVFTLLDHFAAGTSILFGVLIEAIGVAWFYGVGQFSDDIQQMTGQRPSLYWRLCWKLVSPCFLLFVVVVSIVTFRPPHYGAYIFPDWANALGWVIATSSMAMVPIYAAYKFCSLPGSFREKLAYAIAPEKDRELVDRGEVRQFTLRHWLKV

CCCC(C)(COC(N)=O)COC(=O)NC(C)C (centres undefined) [CARISOPRODOL] :: > 10 µM
CC(/C=C1\SC(=S)N(CC(=O)O)C1=O)=C\c1ccccc1 :: 20 µM
CC(=O)Nc1c(I)c(C(=O)N[C@H]2C(O)O[C@H](CO)[C@@H](O)[C@@H]2O)c(I)c(N(C)C(C)=O)c1I (some centres undefined) [METRIZAMIDE] :: > 10 µM
CC[C@H]1OC(=O)[C@H](C)[C@@H](O[C@H]2C[C@@](C)(OC)[C@@H](O)[C@H](C)O2)[C@H](C)[C@@H](O[C@@H]2O[C@H](C)C[C@H](N(C)C)[C@H]2O)[C@](C)(O)C[C@@H](C)/C(=N\OCOCCOC)[C@H](C)[C@@H](O)[C@]1(C)O [ROXITHROMYCIN] :: > 30 µM
CCCN(CCc1cccs1)[C@H]1CCc2c(O)cccc2C1 [ROTIGOTINE] :: 1.3 µM

Lookup: What AC50 value was documented for this compound, O=C1CN=C(c2ccccc2)c2cc(Cl)ccc2N1 [NORDAZEPAM] ?
Found: > 10 µM

Lookup: AC50 for CN1c2ccccc2C(NCCCCCCC(=O)O)c2ccc(Cl)cc2S1(=O)=O (centres undefined) [TIANEPTINE] ?
Found: > 30 µM

Lookup: Dear colleague, I am looking for the recorded AC50 of the following compound: C=C(C)[C@@H]1CCC(C)=C[C@H]1c1c(O)cc(CCCCC)cc1O [CANNABIDIOL]
Found: 28 µM

Lookup: Endpoint output: AC50 of CCOC(=O)NNc1ccc(N(CC)CC(C)O)nn1 (centres undefined) [CADRALAZINE] . Value?
Found: > 30 µM

Lookup: Dear colleague, I am looking for the recorded AC50 of the following compound: COCCCOc1ccnc(C[S+]([O-])c2nc3ccccc3[nH]2)c1C (centres undefined) [RABEPRAZOLE]
Found: > 10 µM

----------
Biological target: Muscarinic acetylcholine receptor M2 (Homo sapiens, UniProt P08172); also: assay procedure not described here
Sequence (P08172 whole entry): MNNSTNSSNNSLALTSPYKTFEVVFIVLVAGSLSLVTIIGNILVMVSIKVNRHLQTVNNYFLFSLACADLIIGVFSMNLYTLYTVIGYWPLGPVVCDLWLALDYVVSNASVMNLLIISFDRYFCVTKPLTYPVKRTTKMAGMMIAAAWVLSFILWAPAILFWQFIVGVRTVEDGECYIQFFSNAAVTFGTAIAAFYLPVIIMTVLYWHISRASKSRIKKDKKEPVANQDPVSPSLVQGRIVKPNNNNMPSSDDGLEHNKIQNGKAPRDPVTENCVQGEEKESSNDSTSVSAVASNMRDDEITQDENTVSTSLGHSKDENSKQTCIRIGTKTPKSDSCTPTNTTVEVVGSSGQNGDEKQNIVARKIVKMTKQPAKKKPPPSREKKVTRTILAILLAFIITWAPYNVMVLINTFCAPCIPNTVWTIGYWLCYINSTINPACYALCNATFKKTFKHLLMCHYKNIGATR
Assay type: functional, cell-based
// reported AC50 per item

CN(c1nccc(=O)[nH]1)C1CCN(c2nc3ccccc3n2Cc2ccc(F)cc2)CC1 :: > 30 µM
Cc1ccc(=O)n(-c2ccccc2)c1 :: > 30 µM
CCCOC(C(=O)OC1CCN(C)CC1)(c1ccccc1)c1ccccc1 :: > 30 µM
COc1ccc2c(c1)[C@]13CCCC[C@@H]1[C@H](C2)N(C)CC3 :: > 10 µM
OCCN1CCN(CC/C=C2/c3ccccc3Sc3ccc(Cl)cc32)CC1 :: > 10 µM
CCN(CC)C(=O)C1CN2CCc3cc(OC)c(OC)cc3C2CC1OC(C)=O (stereo not drawn) [BENZQUINAMIDE] :: > 30 µM
CN1C[C@H](C(=O)N[C@]2(C)O[C@@]3(O)[C@@H]4CCCN4C(=O)[C@H](Cc4ccccc4)N3C2=O)C[C@@H]2c3cccc4[nH]cc(c34)C[C@H]21 [DIHYDROERGOTAMINE] :: > 10 µM

Attention now turns to another entry.
Lookup: Consider the compound Nc1nc(F)nc2c1ncn2[C@@H]1O[C@H](COP(=O)(O)O)[C@@H](O)[C@@H]1O [FLUDARABINE PHOSPHATE] and give its measured AC50.
Found: > 30 µM

----------
AC50, Thromboxane A2 receptor (Homo sapiens): measured values

Solved entries (count: 6):
CN1CCN(c2c(F)cc3c(=O)c(C(=O)O)cn4c3c2SCC4)CC1 :: > 30 µM
O=C1Nc2ccc(Cl)cc2C(c2ccccc2)=NC1O (stereo not drawn) :: > 30 µM
CNC(=O)Oc1ccc2c(c1)[C@]1(C)CCN(C)[C@@H]1N2C :: > 30 µM
CNCC[C@H](Oc1cccc2ccccc12)c1cccs1 :: > 30 µM
NC(=O)c1ncn([C@@H]2O[C@H](CO)[C@@H](O)[C@H]2O)n1 :: > 10 µM
CNC[C@H](O)c1cccc(O)c1 :: > 30 µM

Lookup: Please look up its AC50: COc1cc2nccc(Oc3ccc(NC(=O)Nc4cc(C)on4)c(Cl)c3)c2cc1OC
Found: > 3 µM

Lookup: What does the data say about its AC50? Entry: CCCN(CCC)CCc1cccc2c1CC(=O)N2
Found: > 30 µM

----------
Biological target: Sodium-dependent serotonin transporter (Homo sapiens); also: assay procedure not described here
Sequence (P31645 whole entry): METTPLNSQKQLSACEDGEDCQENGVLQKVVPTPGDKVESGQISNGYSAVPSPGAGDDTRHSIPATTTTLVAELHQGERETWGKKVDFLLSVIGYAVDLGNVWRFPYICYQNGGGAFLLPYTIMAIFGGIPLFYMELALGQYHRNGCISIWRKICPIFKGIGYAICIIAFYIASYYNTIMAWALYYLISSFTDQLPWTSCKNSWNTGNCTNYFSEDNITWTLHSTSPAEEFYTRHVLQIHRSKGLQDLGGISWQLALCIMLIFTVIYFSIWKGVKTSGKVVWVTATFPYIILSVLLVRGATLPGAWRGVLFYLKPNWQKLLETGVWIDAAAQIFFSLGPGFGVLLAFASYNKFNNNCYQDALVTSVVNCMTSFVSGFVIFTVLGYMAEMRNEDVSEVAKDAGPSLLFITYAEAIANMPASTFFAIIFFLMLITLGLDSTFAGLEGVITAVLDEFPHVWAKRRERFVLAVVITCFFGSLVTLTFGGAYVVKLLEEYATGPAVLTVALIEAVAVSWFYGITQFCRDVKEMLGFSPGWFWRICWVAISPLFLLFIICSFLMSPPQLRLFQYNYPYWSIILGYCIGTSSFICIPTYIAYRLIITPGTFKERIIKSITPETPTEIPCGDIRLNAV
Measured metric: AC50

// known answers, use as guide
Cc1ccc2c(-c3ccccc3)nc(=O)n(C(C)C)c2c1 :: > 30 µM
CC(=N)N1CC[C@H](SC2=C(C(=O)O)N3C(=O)[C@H]([C@@H](C)O)[C@H]3C2)C1 :: 37 µM
Clc1ccc2c(c1)C(c1ccccc1)=NCc1nncn1-2 :: > 30 µM

Lookup: Query: AC50; subject: COc1c(O[C@@H]2O[C@H](CO)[C@@H](O)[C@H](O)[C@H]2O)cc2c(c1OC)-c1ccc(SC)c(=O)cc1[C@@H](NC(C)=O)CC2 [THIOCOLCHICOSIDE]
Found: > 30 µM

Lookup: Any idea what its AC50 is? The molecule is CCOC(=O)NNc1ccc(N(CC)CC(C)O)nn1 (stereo not given)
Found: > 30 µM

Lookup: Would you mind telling me what AC50 value was observed for CCC(=O)OCC(=O)[C@@]1(OC(=O)CC)[C@@H](C)C[C@H]2[C@@H]3CCC4=CC(=O)C=C[C@]4(C)[C@@]3(F)[C@@H](O)C[C@@]21C [BETAMETHASONE DIPROPIONATE] ?
Found: > 30 µM

Lookup: // returns reported AC50 for input CC(=O)OCC(=O)[C@@]1(O)CC[C@H]2[C@@H]3CCC4=CC(=O)CC[C@]4(C)C3=CC[C@@]21C [ANECORTAVE ACETATE]
Found: > 10 µM

Lookup: Looking for the measured AC50 of C#C[C@]1(O)CC[C@H]2[C@@H]3CCC4=CC(=O)CCC4=C3C=C[C@@]21CC , can you help?
Found: 0.033 µM

Lookup: So what does the record say about AC50 for CO/N=C(\C(=O)N[C@@H]1C(=O)N2C(C(=O)O)=C(COC(N)=O)CS[C@H]12)c1ccco1 ?
Found: > 30 µM

Lookup: // returns reported AC50 for input O=C1CN2Cc3c(ccc(Cl)c3Cl)N=C2N1 [ANAGRELIDE]
Found: > 30 µM
